Entry source: the supplement of paper PMC11246515

# Protocol notes: total protein half-life in vivo (active degradation + dilution); higher = more stable protein
# Condition notes: E. coli NCM3722 delta-hslV; growth: N-lim chemostat; doubling time 6 h
Task for the reader: assign each of the following sequences its reported total protein half-life in vivo.
Respond with a number, then the unit of measure.

Requested field: total protein half-life in vivo. Item: MIRNVLLAFMICSGMTLLGGCSSVMSHTGGKEGTYPGTRASATMIGDDETNWGTKSLAILDMPFTAVMDTLLLPWDVFRKDSSVRSRVEKSEANAQATNAVIPPARMPDN [P0ADM4]
5.46 h

Next up: MRLCDRDIEAWLDEGRLSINPRPPVERINGATVDVRLGNKFRTFRGHTAAFIDLSGPKDEVSAALDRVMSDEIVLDEGEAFYLHPGELALAVTLESVTLPADLVGWLDGRSSLARLGLMVHVTAHRIDPGWSGCIVLEFYNSGKLPLALRPGMLIGALSFEPLSGPAVRPYNRREDAKYRNQQGAVASRIDKD
3.06 h

Next up: MAQLYFYYSAMNAGKSTALLQSSYNYQERGMRTVVYTAEIDDRFGAGKVSSRIGLSSPAKLFNQNSSLFDEIRAEHEQQAIHCVLVDECQFLTRQQVYELSEVVDQLDIPVLCYGLRTDFRGELFIGSQYLLAWSDKLVELKTICFCGRKASMVLRLDQAGRPYNEGEQVVIGGNERYVSVCRKHYKEALQVDSLTAIQERHRHD
3.97 h

Next up: MESGHRFDAQTLHSFIQAVFRQMGSEEQEAKLVADHLIAANLAGHDSHGIGMIPSYVRSWSQGHLQINHHAKTVKEAGAAVTLDGDRAFGQVAAHEAMALGIEKAHQHGIAAVALHNSHHIGRIGYWAEQCAAAGFVSIHFVSVVGIPMVAPFHGRDSRFGTNPFCVVFPRKDNFPLLLDYATSAIAFGKTRVAWHKGVPVPPGCLIDVNGVPTTNPAVMQESPLGSLLTFAEHKGYALAAMCEILGGALSGGKTTHQETLQTSPDAILNCMTTIIINPELFGAPDCNAQTEAFAEWVKASPHDDDKPILLPGEWEVNTRRERQKQGIPLDAGSWQAICDAARQIGMPEETLQAFCQQLAS
4.28 h
